Hello, the source for this data is paper PMC11931385, in case you need it.

TGT: T1, Rb^P M704V (human, UniProt P06400 380-788, M704V)
T1 construct: also called variant 66
T1 sequence (looked up): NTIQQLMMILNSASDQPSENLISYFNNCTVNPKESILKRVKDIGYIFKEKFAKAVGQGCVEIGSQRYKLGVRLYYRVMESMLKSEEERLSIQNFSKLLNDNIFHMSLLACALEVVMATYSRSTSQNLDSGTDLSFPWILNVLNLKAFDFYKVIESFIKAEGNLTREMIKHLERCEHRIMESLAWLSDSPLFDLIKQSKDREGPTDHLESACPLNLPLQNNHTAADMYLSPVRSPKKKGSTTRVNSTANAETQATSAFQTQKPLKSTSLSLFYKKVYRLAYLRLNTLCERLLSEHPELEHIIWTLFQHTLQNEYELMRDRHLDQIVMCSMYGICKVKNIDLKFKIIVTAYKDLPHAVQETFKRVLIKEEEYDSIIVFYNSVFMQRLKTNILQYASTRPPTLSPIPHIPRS
METHOD: fluorescence polarisation; 25 °C; unlabeled Rb^P titrated against 1.5 nM TMR-E2F1^TD or 7.5 nM TMR-E7^LxCxE; 25 mM Tris pH 8.0, 200 mM NaCl, 1 mM DTT, 0.1% Tween-20; 2 min incubation; quadratic fit; apparent Kd for the variants, Kd for WT
CONDITION_PARAMETERS: both partners purified
No end group written: not given here. TMR = tetramethyl rhodamine dye
Reported Kd values are given for each entry in this list.
Give the quantity in nM, number only.

DLYCYEQLN (also: TMR label, position not given here, source: synthetic peptide, bought: GenScript) [TMR-E7^LxCxE, LxCxE peptide of the E7 oncoprotein from HPV] :: 18

Next up:
Just so you know, measured Kd for {TMR}-GEGIRDLFDCDFGDLTPLD (also called E2F^TD; source: synthetic peptide, bought: GenScript) [TMR-E2F1^TD, peptide of the E2F1 transactivation domain] came out at 41
